Experiment: chemical genetic growth profiling, strain panel (AID 1159580);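 note: tested at 20 µM; growth read once vehicle control cultures reached saturation at 30 °C; 1 = growth at the plate median or of vehicle wells; lower values mean less growth of the strain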
Details: S. cerevisiae deletion strains, growth OD, locus YDR159W, strain sac3
The campaign covered roughly 5,500 compounds. About 2,000 (36%) were called active. Roughly 18% stayed inconclusive and do not appear here. Cut-off read from the data, not from the text of the source: active = normalized growth mostly below about 0.91 (no sharp cut-off); inconclusive = no clear call, values can overlap the other calls; inactive = mostly above about 0.92. The list shows a part of the results.
Please state which outcome applies, choosing from YES for active, NO for inactive

(Q) Dear all, I need the recorded test outcome for CC(=O)OC1CCC2(C)C(=CC=C3C2CCC2(C)C3CCC2C(C)/C=C/C(C)C(C)C)C1(C)C (configuration not stated) , thank you.
(A) NO

(Q) Dear all, I need the recorded test outcome for COc1cc(-c2coc3cc(OC)c(OC)c(OC)c3c2=O)cc(OC)c1OC , thank you.
(A) NO

(Q) Dear all, I need the recorded test outcome for CC(C)[C@@H]1CC[C@@H](C)C[C@H]1O , thank you.
(A) NO

(Q) Dear all, I need the recorded test outcome for O=C1OC(c2ccc(O)cc2)(c2ccc(O)cc2)c2ccccc21 , thank you.
(A) NO

(Q) Dear all, I need the recorded test outcome for COc1cc2occ(-c3ccccc3)c(=O)c2c(OC)c1C , thank you.
(A) NO

(Q) Dear all, I need the recorded test outcome for CC(C(=O)O)c1ccc(C(=O)c2cccs2)cc1 (configuration not stated) , thank you.
(A) NO

(Q) Dear all, I need the recorded test outcome for O=C(Cn1ccnc1[N+](=O)[O-])NCCO , thank you.
(A) NO

(Q) Dear all, I need the recorded test outcome for CC1=CC2C(CC1=O)C(C)=CCC2C(C)C (configuration not stated) , thank you.
(A) NO

(Q) Dear all, I need the recorded test outcome for C[C@H]1COC2=C1C(=O)C(=O)c1c2ccc2c1CCCC2(C)C , thank you.
(A) YES

(Q) Dear all, I need the recorded test outcome for CCOC(=O)[C@H](CCc1ccccc1)N[C@@H](C)C(=O)N1[C@H](C(=O)O)C[C@@H]2CCC[C@@H]21 , thank you.
(A) NO

(Q) Dear all, I need the recorded test outcome for COC(=O)C(C)c1ccc(C(=O)c2cccs2)cc1 (configuration not stated) , thank you.
(A) NO

(Q) Dear all, I need the recorded test outcome for CC(C)C(C)/C=C/C(C)C1CCC2C3=CC=C4CC(O)CCC4(C)C3CCC21C (configuration not stated) , thank you.
(A) NO

(Q) Dear all, I need the recorded test outcome for COc1ccc(-c2coc3cc(OC)cc(OC)c3c2=O)cc1 , thank you.
(A) NO

(Q) Dear all, I need the recorded test outcome for COC(=O)C(O)c1ccccc1 (configuration not stated) , thank you.
(A) NO

(Q) Dear all, I need the recorded test outcome for CC(C)C(C)/C=C/C(C)[C@H]1CCC2C3=CCC4CC(=O)CC[C@]4(C)C3CC[C@@]21C (some centres not stated) , thank you.
(A) NO

(Q) Dear all, I need the recorded test outcome for COc1ccc2c(c1)O[C@H]1c3ccc(OC)cc3OC[C@@H]21 , thank you.
(A) NO

(Q) Dear all, I need the recorded test outcome for O=C1OC2(c3ccc(O)cc3Oc3cc(O)ccc32)c2ccccc21 , thank you.
(A) NO

---

For each record, write down the corresponding normalized growth.
Test: chemical genetic growth profiling, strain panel (AID 1159580);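 note: tested at 20 µM; growth read once vehicle control cultures reached saturation at 30 °C; 1 = growth at the plate median or of vehicle wells; lower values mean less growth of the strain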
Details: S. cerevisiae deletion strains, growth OD, locus YEL061C, strain CIN8, stronger effect = lower value
Among all 5,500 compounds or so, about 2,000 (36%) were called active. Inconclusive results (about 18%) are left out. The list shows a part of the results.
I'd appreciate a reply containing only the number, no unit.

normalized growth measured on COCCCNC(=S)Nc1ccc(C)cc1C = 1.01

normalized growth measured on CC(C)[C@@H]1CC[C@@H](C)C[C@H]1O = 1.01

normalized growth measured on Nc1ccc(N=Nc2ccccc2)c(N)n1 = 0.997

normalized growth measured on N#C/C(=C\c1ccc(Oc2ccccc2)nc1)S(=O)(=O)c1ccccc1 = 1.01

normalized growth measured on c1ccc(-c2cc3c(ccc4nonc43)nn2)cc1 = 0.947

normalized growth measured on CC1(C)NC(=O)N(c2ccc([N+](=O)[O-])c(C(F)(F)F)c2)C1=O = 0.999

normalized growth measured on O=C(O)CN(CC(=O)O)Cc1cc2c(-c3ccccc3C(=O)O)c3cc(CN(CC(=O)O)CC(=O)O)c(=O)cc-3oc2cc1O = 1

normalized growth measured on CCN(CC)CCNC(=O)c1c(-c2c(Cl)cccc2Cl)noc1C = 1.04

normalized growth measured on O=C(O)c1ccccc1-c1c2cc(Br)c(=O)cc-2oc2[c]([Hg])c(O)c(Br)cc12 = 0.984

normalized growth measured on CCOC(=O)Cn1c(=O)c(C#N)cn(C(C)C)c1=O = 0.988

normalized growth measured on O=C1[C@H](CCC(O)c2ccc(F)cc2)[C@@H](c2ccc(O)cc2)N1c1ccc(F)cc1 (some centres not stated) = 0.993

normalized growth measured on N#Cc1c(F)cccc1Oc1ccc(F)cc1 = 0.966

normalized growth measured on CCCCOC(=O)c1ccccc1C(=O)OCc1ccccc1 = 0.989

normalized growth measured on O=S1OCC2C(CO1)C1(Cl)C(Cl)=C(Cl)C2(Cl)C1(Cl)Cl (configuration not stated) = 0.992

normalized growth measured on Cc1cc(-c2ccccc2)nnc1NCCN1CCOCC1 = 0.997

normalized growth measured on Cc1ccc(NC(=S)NCCO)c(C)c1 = 0.99

normalized growth measured on O=C(c1ccc(-c2ccccc2)cc1)c1cc2cc([N+](=O)[O-])ccc2o1 = 1.01

normalized growth measured on CC(=O)N[C@@H](CS)C(=O)O = 1.01

normalized growth measured on CC(C)NNC(=O)c1ccncc1 = 1

normalized growth measured on Cc1ccc(NS(C)(=O)=O)cc1N=Cc1ccc(Cl)c(Cl)c1 = 1.02

normalized growth measured on CC(C)COCC(CN(Cc1ccccc1)c1ccccc1)N1CCCC1 (configuration not stated) = 0.973

normalized growth measured on Nc1ccc(N=Nc2ccc(S(N)(=O)=O)cc2)c2ccccc12 = 0.989

normalized growth measured on CCCCOC(=O)c1ccc(N)cc1 = 0.974

normalized growth measured on CCN(CC)CCOC(=O)c1ccc(N)cc1 = 1.01

normalized growth measured on CC1=CC2C(CC1=O)C(C)=CCC2C(C)C (configuration not stated) = 0.911

normalized growth measured on N#C/C(=C\c1cccn1-c1ccc(OC(F)(F)F)cc1)S(=O)(=O)c1ccccc1 = 1.02

normalized growth measured on CC(C(=O)O)c1ccc(C(=O)c2cccs2)cc1 (configuration not stated) = 1

normalized growth measured on CC(=O)c1cnn(-c2ccccc2)c1C = 1

normalized growth measured on O=C(c1ccccc1)c1cc2c(cc1Br)OCCO2 = 0.904

normalized growth measured on CN1c2ccccc2C(=O)NC1c1ccc([N+](=O)[O-])s1 (configuration not stated) = 0.967

normalized growth measured on Nc1ccn(C2O[C@H](CO)[C@@H](O)[C@@H]2O)c(=O)n1 (some centres not stated) = 1.01

normalized growth measured on CC(C)NCC(O)c1cc(O)cc(O)c1 (configuration not stated) = 0.995

normalized growth measured on COC(=O)c1c(-c2c(Cl)cccc2Cl)noc1NC(=O)NN1CCCCC1 = 1

normalized growth measured on COC(=O)C(O)c1ccccc1 (configuration not stated) = 0.991

normalized growth measured on C[C@@H]1C(=O)OC2[C@H](O)C34[C@@H]5OC(=O)[C@@]3(O[C@@H]3OC(=O)[C@H](O)[C@@]34[C@H](C(C)(C)C)[C@H]5O)[C@]21O (some centres not stated) = 0.992

normalized growth measured on COC(=O)C(C)c1ccc(C(=O)c2cccs2)cc1 (configuration not stated) = 0.991

normalized growth measured on Cc1onc(-c2c(F)cccc2Cl)c1C(=O)c1ccc(F)cc1 = 0.979

normalized growth measured on OC(Cn1cncn1)(Cn1cncn1)c1ccc(F)cc1F = 0.993

normalized growth measured on C=C1C(C)C2C(Cc3ccccc3)NC(=O)C23OC(=O)/C=C/C(=O)CCCC(C)C/C=C/C3C1O (configuration not stated) = 1.01

normalized growth measured on O=C1CCC(c2cccs2)=NN1 = 0.987

normalized growth measured on CC(C)C(=O)Nc1ccc([N+](=O)[O-])c(C(F)(F)F)c1 = 0.993

normalized growth measured on O=[N+]([O-])c1ccc2c(c1)NC(c1ccc([N+](=O)[O-])s1)O2 (configuration not stated) = 0.049

normalized growth measured on Cc1onc(-c2c(F)cccc2Cl)c1C(=O)Oc1ccccc1 = 0.908

normalized growth measured on Cc1onc(-c2ccccc2)c1NC(=O)Nc1c(Cl)cccc1Cl = 0.991

normalized growth measured on Cc1ccc(NC(=O)c2c(F)cccc2Cl)c(C(=O)Nc2ccc(F)cc2)c1 = 0.987

normalized growth measured on N#CCC(=O)Nc1ccccn1 = 1.01

normalized growth measured on CCCC(=O)O[C@]1(C(=O)CO)CCC2[C@@H]3CCC4=CC(=O)CC[C@]4(C)C3[C@@H](O)C[C@@]21C (some centres not stated) = 1

Attribution: PubChem BioAssay AID1159580
